system-tested: Prothrombin (Homo sapiens)
measurement-type: log10(IC50) (log10 of the value in µM)

[
  {
    "chemical-structure": "CC(C)[C@@H](NC(=O)[C@H](N)Cc1ccccc1)C(=O)N[C@@H](CCCNC(=N)N)C(=O)c1nccs1",
    "log10(IC50)": -2.07
  },
  {
    "chemical-structure": "N=C(N)NCCC[C@@H](NC(=O)[C@@H]1CCCN1C(=O)CCc1ccccc1)C(=O)c1nccs1",
    "log10(IC50)": -0.09
  },
  {
    "chemical-structure": "CC(=O)N[C@H](Cc1ccccc1)C(=O)N1CCC[C@H]1C(=O)N[C@H](CCCNC(=N)N)C(=O)c1nccs1",
    "log10(IC50)": 0.36
  },
  {
    "chemical-structure": "NC(N)=NCCC[C@H](NC(=O)[C@@H]1CCCN1C(=O)[C@H](N)Cc1ccccc1)C(=O)c1nccs1",
    "log10(IC50)": -2.82
  },
  {
    "chemical-structure": "N=C(N)NCCC[C@H](NC(=O)[C@@H]1CCCN1C(=O)CCCc1ccccc1)C(=O)c1nccs1",
    "log10(IC50)": 0.30
  }
]

* * *

system-tested: Prolyl endopeptidase (Sus scrofa)
Sequence (P23687 whole entry): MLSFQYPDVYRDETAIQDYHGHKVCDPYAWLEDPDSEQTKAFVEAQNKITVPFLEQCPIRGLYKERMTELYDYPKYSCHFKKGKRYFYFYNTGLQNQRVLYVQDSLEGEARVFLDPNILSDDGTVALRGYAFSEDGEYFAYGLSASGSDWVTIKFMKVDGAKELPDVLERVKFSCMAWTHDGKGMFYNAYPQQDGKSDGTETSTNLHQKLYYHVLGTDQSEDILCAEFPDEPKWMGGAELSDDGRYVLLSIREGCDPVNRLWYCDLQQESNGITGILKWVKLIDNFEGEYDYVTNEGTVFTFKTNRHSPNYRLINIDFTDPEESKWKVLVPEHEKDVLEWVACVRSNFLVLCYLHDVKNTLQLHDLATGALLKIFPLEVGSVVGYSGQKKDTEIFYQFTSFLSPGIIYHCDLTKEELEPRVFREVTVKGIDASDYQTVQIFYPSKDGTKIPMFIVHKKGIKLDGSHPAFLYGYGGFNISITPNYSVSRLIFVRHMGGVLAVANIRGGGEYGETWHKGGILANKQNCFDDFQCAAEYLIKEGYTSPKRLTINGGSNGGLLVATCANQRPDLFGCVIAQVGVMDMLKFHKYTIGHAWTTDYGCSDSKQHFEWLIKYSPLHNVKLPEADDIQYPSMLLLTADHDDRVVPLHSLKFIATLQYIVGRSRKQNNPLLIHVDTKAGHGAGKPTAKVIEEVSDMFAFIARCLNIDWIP
pIC50: −log10 of the molar value.
Below, each entry is listed with its recorded pIC50.

[
  {
    "chemical-structure": "C[C@H](NC(=O)[C@@H]1CCCN1C(=O)CCCc1ccccc1)C(=O)c1nccs1",
    "pIC50": 8.30
  },
  {
    "chemical-structure": "O=C(c1nccs1)[C@H]1CCCN1C(=O)[C@@H]1CCCN1C(=O)CCCc1ccccc1",
    "pIC50": 8.36
  },
  {
    "chemical-structure": "CC(C)[C@H](NC(=O)[C@@H]1CCCN1C(=O)CCCc1ccccc1)C(=O)c1nccs1",
    "pIC50": 5.11
  },
  {
    "chemical-structure": "N=C(N)NCCC[C@H](NC(=O)[C@@H]1CCCN1C(=O)CCCc1ccccc1)C(=O)c1nccs1",
    "pIC50": 4.55
  }
]

* * *

Here we list compounds with their recorded IC50 when tested on Serine protease 1 (Bos taurus, UniProt P00760).

[
  {
    "chemical-structure": "N=C(N)NCCC[C@H](NC(=O)[C@@H]1CCCN1C(=O)CCCc1ccccc1)C(=O)c1nccs1",
    "system-tested": "Serine protease 1 (Bos taurus, UniProt P00760)",
    "unit-name": "µM",
    "qual": "=",
    "IC50": 0.23
  },
  {
    "chemical-structure": "CC(=O)N[C@H](Cc1ccccc1)C(=O)N1CCC[C@H]1C(=O)N[C@H](CCCNC(=N)N)C(=O)c1nccs1",
    "system-tested": "Serine protease 1 (Bos taurus, UniProt P00760)",
    "unit-name": "µM",
    "qual": "=",
    "IC50": 0.23
  },
  {
    "chemical-structure": "CC(C)[C@@H](NC(=O)[C@H](N)Cc1ccccc1)C(=O)N[C@@H](CCCNC(=N)N)C(=O)c1nccs1",
    "system-tested": "Serine protease 1 (Bos taurus, UniProt P00760)",
    "unit-name": "µM",
    "qual": "=",
    "IC50": 0.18
  },
  {
    "chemical-structure": "C[C@H](NC(=O)[C@@H]1CCCN1C(=O)CCCc1ccccc1)C(=O)c1nccs1",
    "system-tested": "Serine protease 1 (Bos taurus, UniProt P00760)",
    "unit-name": "µM",
    "qual": ">",
    "IC50": 1000
  },
  {
    "chemical-structure": "CC(C)[C@H](NC(=O)[C@@H]1CCCN1C(=O)CCCc1ccccc1)C(=O)c1nccs1",
    "system-tested": "Serine protease 1 (Bos taurus, UniProt P00760)",
    "unit-name": "µM",
    "qual": ">",
    "IC50": 1000
  }
]

* * *

measurement-protocol: Relative inhibition of trypsin and thrombin
Set-up: reference not given here
Reported values of Ratio for individual entries

[
  {
    "chemical-structure": "NCCCC[C@H](NC(=O)[C@@H]1CCCN1C(=O)[C@H](N)Cc1ccccc1)C(=O)c1nccs1",
    "Ratio": 4.6
  },
  {
    "chemical-structure": "CC(C)[C@@H](NC(=O)[C@H](N)Cc1ccccc1)C(=O)N[C@@H](CCCN=C(N)N)C(=O)c1nccs1",
    "Ratio": 21
  },
  {
    "chemical-structure": "NCCCCC[C@H](NC(=O)[C@@H]1CCCN1C(=O)[C@H](N)Cc1ccccc1)C(=O)c1nccs1",
    "Ratio": 1.1
  },
  {
    "chemical-structure": "NC(N)=NCCC[C@H](NC(=O)[C@@H]1CCCN1C(=O)[C@H](N)Cc1ccccc1)C(=O)c1nccs1",
    "Ratio": 2.8
  },
  {
    "chemical-structure": "CC(=O)N[C@H](Cc1ccccc1)C(=O)N1CCC[C@H]1C(=O)N[C@H](CCCN=C(N)N)C(=O)c1nccs1",
    "Ratio": 0.1
  },
  {
    "chemical-structure": "NC(N)=NCCC[C@@H](NC(=O)[C@@H]1CCCCN1C(=O)[C@H](N)Cc1ccccc1)C(=O)c1nccs1",
    "Ratio": 56
  },
  {
    "chemical-structure": "NC(N)=NCCC[C@H](NC(=O)[C@@H]1CCN1C(=O)[C@H](N)Cc1ccccc1)C(=O)c1nccs1",
    "Ratio": 3
  },
  {
    "chemical-structure": "N=C(N)NCCC[C@@H](NC(=O)[C@@H]1CCCN1C(=O)[C@@H](Cc1ccccc1)NC(=O)OCc1ccccc1)C(=O)c1nccs1",
    "Ratio": 0.8
  },
  {
    "chemical-structure": "N=C(N)NCCC[C@@H](NC(=O)[C@@H]1CCCN1C(=O)CCc1ccccc1)C(=O)c1nccs1",
    "Ratio": 0.3
  }
]

* * *

Target protein (sequence): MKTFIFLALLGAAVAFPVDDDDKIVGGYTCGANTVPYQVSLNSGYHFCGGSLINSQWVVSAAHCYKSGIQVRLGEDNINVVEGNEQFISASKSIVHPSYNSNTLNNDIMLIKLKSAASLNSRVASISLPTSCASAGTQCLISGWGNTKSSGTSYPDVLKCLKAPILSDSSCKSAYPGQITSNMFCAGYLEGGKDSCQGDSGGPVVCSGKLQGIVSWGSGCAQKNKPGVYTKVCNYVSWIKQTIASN
pIC50: −log10 of the molar value.
Listed below: pIC50 values for each entry.

[
  {
    "chemical-structure": "NC(N)=NCCC[C@H](NC(=O)[C@@H]1CCCN1C(=O)[C@H](N)Cc1ccccc1)C(=O)c1nccs1",
    "qual": "=",
    "pIC50": 8.38
  },
  {
    "chemical-structure": "N=C(N)NCCC[C@@H](NC(=O)[C@@H]1CCCN1C(=O)CCc1ccccc1)C(=O)c1nccs1",
    "qual": "=",
    "pIC50": 6.64
  },
  {
    "chemical-structure": "O=C(c1nccs1)[C@H]1CCCN1C(=O)[C@@H]1CCCN1C(=O)CCCc1ccccc1",
    "qual": "<",
    "pIC50": 3.00
  },
  {
    "chemical-structure": "N=C(N)NCCC[C@@H](NC(=O)[C@@H]1CCCN1C(=O)[C@@H](Cc1ccccc1)NC(=O)OCc1ccccc1)C(=O)c1nccs1",
    "qual": "=",
    "pIC50": 8.80
  }
]

* * *

system-tested: Prothrombin (Homo sapiens)

[
  {
    "chemical-structure": "CC(C)[C@H](NC(=O)[C@@H]1CCCN1C(=O)CCCc1ccccc1)C(=O)c1nccs1",
    "IC50": "> 1000 µM"
  },
  {
    "chemical-structure": "O=C(c1nccs1)[C@H]1CCCN1C(=O)[C@@H]1CCCN1C(=O)CCCc1ccccc1",
    "IC50": "> 1000 µM"
  },
  {
    "chemical-structure": "C[C@H](NC(=O)[C@@H]1CCCN1C(=O)CCCc1ccccc1)C(=O)c1nccs1",
    "IC50": "> 1000 µM"
  }
]
